viability, T/C for assorted compounds
test system: 186277-243-T-J2-PDC complex spheroid viability; test: Anticancer human tumor 186277-243-T-J2-PDC patient-derived colon adenocarcinoma cell line growth inhibition [GQUAD]; conditions: second compound 0.1 µM; first compound 0.0316 µM; active compounds read low;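 also: spheroids exposed to drugs for 7 days; 100% = DMSO vehicle control viability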
Give your result in % as a bare value.

[
  {
    "Compound": "Cc1cccc(N(C)C(=O)C2C(O)CCN2c2nc(C)cc(C(F)(F)F)c2C#N)c1 (stereo unspecified) + Cc1cnc(CNC(=O)c2c(=O)c3ccc(N4CCCN(C)CC4)nc3n3c2sc2ccccc23)cn1",
    "Unit Of Measurement": "%",
    "Numeric Result": 92.8
  },
  {
    "Compound": "Nc1ccn(C2OC(CO)C(O)C2(F)F)c(=O)n1 (stereo unspecified) + Cc1[nH]c2ccc(F)cc2c1-c1nc2c3cccnc3c3ncccc3c2[nH]1",
    "Unit Of Measurement": "%",
    "Numeric Result": 22.8
  },
  {
    "Compound": "COc1ccc([C@@H](O)c2cc(-c3ncnc4cc(N5CCOCC5)ccc34)c(F)cc2Cl)nn1 + Cc1[nH]c2ccc(F)cc2c1-c1nc2c3cccnc3c3ncccc3c2[nH]1",
    "Unit Of Measurement": "%",
    "Numeric Result": 94.5
  },
  {
    "Compound": "Cn1ncnc1[C@H]1c2n[nH]c(=O)c3cc(F)cc(c23)N[C@@H]1c1ccc(F)cc1 + Cc1[nH]c2ccc(F)cc2c1-c1nc2c3cccnc3c3ncccc3c2[nH]1",
    "Unit Of Measurement": "%",
    "Numeric Result": 91.7
  },
  {
    "Compound": "C=CC(=O)N1CCN(c2nc(=O)n(-c3c(C)ccnc3C(C)C)c3nc(-c4c(O)cccc4F)c(F)cc23)C(C)C1 (stereo unspecified) + Cc1[nH]c2ccc(F)cc2c1-c1nc2c3cccnc3c3ncccc3c2[nH]1",
    "Unit Of Measurement": "%",
    "Numeric Result": 95.7
  }
]

Recorded viability, T/C for Cn1ncnc1[C@H]1c2n[nH]c(=O)c3cc(F)cc(c23)N[C@@H]1c1ccc(F)cc1 + Cc1cnc(CNC(=O)c2c(=O)c3ccc(N4CCCN(C)CC4)nc3n3c2sc2ccccc23)cn1 , please?
94.8

Recorded viability, T/C for Nc1ccn(C2OC(CO)C(O)C2(F)F)c(=O)n1 (stereo unspecified) + Cc1cnc(CNC(=O)c2c(=O)c3ccc(N4CCCN(C)CC4)nc3n3c2sc2ccccc23)cn1 , please?
27.1

Recorded viability, T/C for COc1cc(C2c3cc4c(cc3C(OC3OC5COC(C)OC5C(O)C3O)C3COC(=O)C23)OCO4)cc(OC)c1O (stereo unspecified) + CN(C)c1ccc(Nc2c3ccc(NC(=O)CCN4CCCC4)cc3nc3cc(NC(=O)CCN4CCCC4)ccc23)cc1 , please?
91.5

Recorded viability, T/C for O=c1[nH]cc(F)c(=O)[nH]1 + Cc1cnc(CNC(=O)c2c(=O)c3ccc(N4CCCN(C)CC4)nc3n3c2sc2ccccc23)cn1 , please?
86.4

Recorded viability, T/C for C#Cc1c(F)ccc2cc(O)cc(-c3ncc4c(N5CC6CCC(C5)N6)nc(OCC56CCCN5CC(F)C6)nc4c3F)c12 (stereo unspecified) + Cc1cnc(CNC(=O)c2c(=O)c3ccc(N4CCCN(C)CC4)nc3n3c2sc2ccccc23)cn1 , please?
40

Recorded viability, T/C for O=C(NO)c1cnc(N2CCN(S(=O)(=O)c3ccc4ccccc4c3)CC2)nc1 + CN(C)c1ccc(Nc2c3ccc(NC(=O)CCN4CCCC4)cc3nc3cc(NC(=O)CCN4CCCC4)ccc23)cc1 , please?
90.1
